All values here come from a melting point compilation (Tetko et al.).

measured_parameter: melting point

compound	melting point
CCc1nnc(-c2ccc(N)cc2)o1	137 to 139 °C
O=C(O)c1c2c(nc3ccccc13)C(=Cc1ccccc1Cl)CCC2	98 to 100 °C
Cc1nn(Cc2ccc(Cl)cc2Cl)c(Cl)c1C(=O)O	227 to 229 °C
COC(=O)Cc1cc(=O)n(C(C)(C)C)[nH]1	110 to 112 °C
NCC(Cc1ccc(F)cc1)C(N)=O (configuration not stated)	119 to 121 °C

# input Look up melting point for this compound: "Cc1cc(N2CCCC2=O)ccc1S(=O)(=O)Cl"
# output 104 to 106 °C

# input Look up melting point for this compound: "Cc1cccc2c(=O)[nH]c(CC#N)nc12"
# output 233 to 235 °C

====

Parameter: melting point. Scope: all listed entries.

Here are 5 molecules together with their reported answers.
molecule	melting point
COCCn1c(S)nc2cc(Cl)ccc21	195 to 197 °C
COc1cc(C(=O)O)ccc1OCC(C)C	145 to 147 °C
O=C(O)CCNC(=O)c1ccc(F)cc1F	118 to 120 °C
O=C(O)c1ccnc(OCc2ccccc2)c1	171 to 173 °C
CCC(C)NC(=O)c1ccc(N)c(C)c1 (centres undefined)	123 to 125 °C

# input Look up melting point for this molecule: "Cn1cc(S(=O)(=O)NCC(=O)O)cn1"
# output 201 to 203 °C

# input Look up melting point for this molecule: "Cc1cc(O)cc(=O)o1"
# output 188 to 190 °C

# input Look up melting point for this molecule: "CCOc1cc(Br)c([N+](=O)[O-])cc1OCC"
# output 62 to 64 °C

# input Look up melting point for this molecule: "CCOC(=O)c1cnc(SC)nc1N"
# output 110 to 120 °C

# input Look up melting point for this molecule: "COc1cc(/C=C(/C#N)C(=O)O)ccc1O"
# output 199 to 201 °C

====

Parameter: melting point. Scope: all listed entries.

Here are 5 compounds together with their reported answers.
compound	data_value
CCc1nc2c(s1)C(O)CCC2 (centres undefined)	75 to 77 °C
CCOc1ccc(C(N)=S)cc1	115 to 117 °C
Nc1nc2c(Cl)cccc2[nH]1	143 to 145 °C
O=C(CCl)N1CCC(c2nc3ccccc3s2)CC1	59 to 61 °C
CSc1nc(C(=O)O)cc(C2CC2)n1	135 to 137 °C

# input Look up melting point for this compound: "Cc1cccc(C)c1CC(=O)O"
# output 117 to 119 °C

# input Look up melting point for this compound: "Cc1cc(C)c2c(c1)NCCC2"
# output 34 to 36 °C

# input Look up melting point for this compound: "NS(=O)(=O)c1cccc2c1OCCO2"
# output 173 to 175 °C

# input Look up melting point for this compound: "CCC(C)(C)c1ccc(C(=O)O)cc1"
# output 103 to 105 °C

# input Look up melting point for this compound: "COc1ccc(C(=O)O)cc1S(=O)(=O)N(C)C"
# output 149 to 151 °C

# input Look up melting point for this compound: "Cc1ccsc1C(=O)Nc1ccc(O)cc1"
# output 127 to 129 °C

# input Look up melting point for this compound: "NC(=S)CCN1CCCCC1"
# output 104 to 106 °C

# input Look up melting point for this compound: "Cc1ncsc1-c1nc(CN)no1"
# output 159 to 161 °C

# input Look up melting point for this compound: "Cc1ccc(S(N)(=O)=O)cc1C(=O)O"
# output 175 to 190 °C

# input Look up melting point for this compound: "ClCc1nc(-c2nc[nH]n2)no1"
# output 187 to 189 °C

# input Look up melting point for this compound: "CCOC(=O)c1sc2nc(CN3CCOCC3)nc(Cl)c2c1C"
# output 110 to 112 °C

====

Parameter: melting point. Scope: all listed entries.

Here are 5 compounds together with their reported answers.
CCOC(=O)COc1cccc(C(=O)O)c1 119 to 121 °C
COc1cc(OC)c2c(Cl)ccnc2c1 92 to 94 °C
Cc1ccnc(Oc2cc(N)ccc2C)c1 76 to 78 °C
Cc1ccccc1COc1ccccc1C(=O)O 103 to 105 °C
Nc1[nH]nc(-c2ccsc2)c1-c1ccc2c(c1)OCO2 79 to 81 °C

# input Look up melting point for this compound: "FC(F)(F)c1cc[nH]n1"
# output 45 to 47 °C

# input Look up melting point for this compound: "CN(C)CCCNC(N)=S"
# output 66 to 68 °C

====

Parameter: melting point. Scope: all listed entries.

Here are 3 compounds together with their reported answers.
compound	melting point
O=C1CNC(=O)N1C1CC1	144 to 146 °C
COc1c(Cl)ccnc1O	169 to 171 °C
CC(C)(C)OC(=O)N1CCN(CCS(N)(=O)=O)CC1	138 to 140 °C

Could you now consider this next compound?
# input Look up melting point for this compound: "NCc1ccc(C(=O)Nc2ccc(F)cc2)cc1"
# output 145 to 147 °C

====

measured_parameter: melting point

CC(=O)c1sc(Cc2ccccc2)nc1C 53 to 55 °C
CCc1nc(N)no1 39 to 41 °C
COc1ccc(-c2nnc(N)[nH]2)c(OC)c1 214 to 216 °C
O=C(O)C1=CCCCO1 66 to 68 °C
COc1cccc(Nc2nnc(S)s2)c1 208 to 210 °C

# input Look up melting point for this molecule: "Cc1ccc(S(=O)(=O)OCC2CCN(C(=O)OC(C)(C)C)CC2)cc1"
# output 72 to 74 °C

# input Look up melting point for this molecule: "Nc1cc(CC2CCCCC2)no1"
# output 106 to 108 °C

====

Parameter: melting point. Scope: all listed entries.

Here are 3 compounds together with their reported answers.
compound	data_value
CC(C)CN1C(=O)CN=C1S	< 17 °C
Sc1nnc(-c2ccncc2)n1C1CC1	303 to 305 °C
Cc1c(Cl)ccc2ccc(Cl)nc12	92 to 94 °C

# input Look up melting point for this compound: O=[N+]([O-])c1ccc(NCC2CCCO2)c(F)c1 (configuration not stated)
# output 68 to 70 °C

# input Look up melting point for this compound: "O=C(O)c1ccc(S(=O)(=O)C(F)F)cc1"
# output 232 to 234 °C

# input Look up melting point for this compound: CS(=O)Cc1cccc(C(=O)O)c1 (configuration not stated)
# output 181 to 183 °C

# input Look up melting point for this compound: COC(=O)C(N)Cc1c[nH]c2ccc(Br)cc12 (configuration not stated)
# output 119 to 121 °C

# input Look up melting point for this compound: "CCOC(OCC)c1nnc[nH]1"
# output 59 to 61 °C

====

Parameter: melting point. Scope: all listed entries.

Here are 5 molecules together with their reported answers.
molecule	melting point
Cn1c(NCCO)nc2ccccc21	75 to 77 °C
COC(=O)c1c(N)sc(C)c1-c1ccc(Cl)cc1Cl	94 to 96 °C
CN(C1CC1)S(=O)(=O)c1ccc(N)cc1	131 to 133 °C
CC(C)c1ccc(C2(O)CCC(=O)CC2)cc1	134 to 136 °C
Cc1ccc(-c2nc3ccc(F)cc3n2C(C)C)cc1N	183 to 185 °C

# input Look up melting point for this molecule: "O=C(O)CCc1nccs1"
# output 123 to 125 °C

# input Look up melting point for this molecule: C#CCN1CCCCC1C(=O)NC (configuration not stated)
# output 116 to 118 °C

# input Look up melting point for this molecule: O=C(O)CCN1C(=O)C2CCCCC2C1=O (configuration not stated)
# output 81 to 83 °C

# input Look up melting point for this molecule: "N#Cc1cnc(Oc2ccccc2)cn1"
# output 99 to 101 °C

# input Look up melting point for this molecule: "Cn1cc2c(=O)[nH][nH]c(=O)c2c1-c1ccc(N)cc1"
# output 349 to 351 °C

====

Parameter: melting point. Scope: all listed entries.

Here are 5 molecules together with their reported answers.
molecule	data_value
CC(C)(C)OC(=O)NC(C(=O)O)c1ccccc1 (configuration not stated)	113 to 115 °C
CC(C)(C)OC(=O)NCC(C(=O)O)c1ccccc1 (configuration not stated)	144 to 146 °C
O=C(O)c1cc2c(F)c(F)ccc2[nH]1	209 to 211 °C
Cc1cc(N)nn1-c1ccc(Cl)c(Cl)c1	124 to 126 °C
CN(C)S(=O)(=O)c1ccc2c(c1)nc(CCC(=O)O)n2C	205 to 209 °C

# input Look up melting point for this molecule: "Cc1ccc(-n2c(=O)c(N)c(C)n2C)cc1"
# output 261 to 263 °C

# input Look up melting point for this molecule: "CC(C)(C)OC(=O)NCc1ccc(C(=O)O)c(C2CC2)n1"
# output 144 to 146 °C

# input Look up melting point for this molecule: "Clc1ncnc2ccc(I)cc12"
# output 173 to 175 °C

# input Look up melting point for this molecule: "Nc1cc(Cl)ccc1Sc1ccccc1"
# output 62 to 64 °C

# input Look up melting point for this molecule: "CC(C)(C)OC(=O)N1CC=C(c2ccc(O)cc2)CC1"
# output 134 to 136 °C

# input Look up melting point for this molecule: "Cc1ccc2nc(-c3cccc(C)c3O)[nH]c2c1"
# output 244 to 246 °C

# input Look up melting point for this molecule: "Cc1ccc(-c2cc(C(=O)O)c3ccccc3n2)cc1"
# output 180 to 184 °C
